# credit: paper PMC5488394

biological target: ligand binding domain of MR (Homo sapiens, UniProt P08235); construct: expressed in transfected cells; host or cells: CHO-K1; experiment: functional cell-based MR transactivation assay in CHO-K1 cells; conditions: agonist corticosterone 1 nM, duplicate, read-out: IC50 vs corticosterone as agonist
Sequence (P08235 726-964 limits assumed): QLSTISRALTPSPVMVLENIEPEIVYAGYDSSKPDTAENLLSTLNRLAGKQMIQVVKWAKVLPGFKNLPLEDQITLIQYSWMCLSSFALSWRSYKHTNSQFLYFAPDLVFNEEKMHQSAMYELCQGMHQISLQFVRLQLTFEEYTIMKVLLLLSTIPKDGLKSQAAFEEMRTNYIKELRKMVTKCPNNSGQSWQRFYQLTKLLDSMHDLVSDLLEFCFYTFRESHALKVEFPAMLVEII
MEASURED QUANTITY: pIC50
pIC50 is defined as minus the log10 of a concentration measured in mol/L.

Prompt: Any idea what its pIC50 is? The compound is CCOc1ncc(C)c2c1[C@H](c1ccc(C#N)cc1OC)C(C(N)=O)=C(C)N2
Completion: 7.62

* * *

target: ligand binding domain of MR (Homo sapiens); construct: expressed in transfected cells; host or cells: CHO-K1; assay: functional cell-based MR transactivation assay in CHO-K1 cells; settings: agonist DOCA 10 nM, duplicate, read-out: IC50 vs DOCA as agonist
MEASURED QUANTITY: IC50 (nM)
API: value field is a number in nM; no unit string.

Prompt: Any idea what its IC50 is? The compound is CCOc1ncc(C)c2c1[C@H](c1ccc(C#N)cc1OC)C(C(N)=O)=C(C)N2
Completion: 46
